Let's look at some molecules and their measured zone of inhibition at 250 µg/mL.
# System: Pseudomonas
# Protocol notes: Antibacterial activity against Pseudomonas at 250 ug/ml after 24 to 45 hrs by disc diffusion method
# Format: functional
# Measurement conditions: read-out: IZ
Your answer should be a number followed by the unit of measure.

| Smiles structure | Measured result |
| --- | --- |
| Fc1ccc2c(c1)CN1CN2Cc2cc(F)ccc21 | 8 mm |
| Cc1cc(F)c2c(c1)CN1CN2Cc2cc(C)cc(F)c21 | 8 mm |
| Cc1cc(Br)c2c(c1)CN1CN2Cc2cc(C)cc(Br)c21 | 13 mm |
| Cc1cccc2c1N1Cc3cccc(C)c3N(C2)C1 | 13 mm |

Exam item: Record lookup: for Pseudomonas, what zone of inhibition at 250 µg/mL belongs to CC(=O)c1cccc2c1N1Cc3cccc(C(C)=O)c3N(C2)C1 ?
Marked response: 8 mm

Exam item: For the record COc1ccc2c(c1Br)CN1CN2Cc2c1ccc(OC)c2Br , what value of zone of inhibition at 250 µg/mL is listed for Pseudomonas?
Marked response: 20 mm

Data origin: ChEMBL document CHEMBL3046842
